Measured Plant response rating, Nutsedge, Yellow, listed per entry.
# Tested on: yellow nutsedge (Cyperus esculentus)
# methodSummary: Test D pre-/postemergence plant response
# Format: in vivo
# testSettings: Postemergence, 62 g ai/ha; scale 0 to 100, 0 no effect, 100 complete control
Simply state the number, no unit and no words.

Below are worked cases with known answers.
>>> value("Cc1cc(-c2ccccc2Oc2ncc(Cl)cn2)no1 [Compound 153]")
5
>>> value("FC(F)c1cc(-c2c(Cl)cccc2Oc2ncc(Br)cn2)on1 [Compound 121]")
5
>>> value("Fc1ccc(Oc2ncc(Cl)cn2)c(-c2cc(C(F)F)on2)c1F [Compound 113]")
5
>>> value("Cc1cc(-c2ccccc2Oc2ncc(Cl)cn2)no1 [Compound 60]")
0
>>> value("CC(F)(F)c1cc(-c2ccccc2Oc2ncc(Br)cn2)no1 [Compound 149]")
5
>>> value("FCc1cc(-c2c(F)cccc2Oc2ncc(Cl)cn2)no1 [Compound 57]")
5

Look up yellow nutsedge (Cyperus esculentus) data: Plant response rating, Nutsedge, Yellow of Fc1ccc(Oc2ncc(Cl)cn2)c(-c2cc(C(F)F)on2)c1Cl [Compound 96] , then report it.
5

Look up yellow nutsedge (Cyperus esculentus) data: Plant response rating, Nutsedge, Yellow of Fc1cccc(Oc2ncc(Br)cn2)c1-c1cc(C(F)F)on1 [Compound 118] , then report it.
10

====

Measured pest or weed control at 125 g/ha, listed per entry.
# Tested on: windgrass (Apera spica-venti)
# methodSummary: Test E pre-/postemergence plant response
# Type: in vivo
# testSettings: post-emergence, 125 g ai/ha, Postemergence, scale 0 to 100, read-out: Plant response rating, Windgrass
Please give a number only; it is taken to be in %.

>>> value("FC(F)c1cc(-c2ccccc2Oc2ncc(Cl)cn2)no1 [Compound 35]")
40

Tell us which pest or weed control at 125 g/ha value is on record for Fc1cccc(Oc2ncc(Cl)cn2)c1-c1cc(C(F)F)no1 [Compound 144]
55

Tell us which pest or weed control at 125 g/ha value is on record for Fc1cccc(Oc2ncc(Cl)cn2)c1-c1cc(C(F)(F)F)on1 [Compound 168]
40

Tell us which pest or weed control at 125 g/ha value is on record for FC(F)c1cc(-c2ccccc2Oc2ncc(Br)cn2)no1 [Compound 62]
65

====

# Test system: Italian ryegrass (Lolium multiflorum)
# methodSummary: Test D pre-/postemergence plant response
# Type: in vivo
# testSettings: Lolium multiflorum, pre-emergence; Preemergence; 62 g ai/ha; scale 0 to 100 (0 no effect, 100 complete control); read-out: Plant response rating, Ryegrass, Italian
# Text: […]
// assign yes (1) if pest or weed control at 62 g/ha falls strictly below 70%, else no (0) (ties count as no (0))

See these solved cases before continuing.
>>> classlabel("FC(F)(F)c1cc(-c2ccccc2Oc2ncc(Cl)cn2)on1")
"no (0)"
>>> classlabel("Fc1cccc(Oc2ncc(Cl)cn2)c1-c1cc(C(F)F)on1")
"no (0)"
>>> classlabel("FC(F)c1cc(-c2ccccc2Oc2ncc(Cl)cn2)no1")
"no (0)"
>>> classlabel("FCc1cc(-c2ccccc2Oc2ncc(Cl)cn2)no1")
"yes (1)"

Turning to the following compound.
Decide: pest or weed control at 62 g/ha of "FC(F)c1cc(-c2ccccc2Oc2ncc(Br)cn2)no1" strictly below 70%?
yes (1)

====

# System: Italian ryegrass (Lolium multiflorum)
# methodSummary: Test D pre-/postemergence plant response
# Assay type: in vivo
# testSettings: Postemergence, 16 g ai/ha; scale 0 to 100 (0 no effect, 100 complete control)
Measured Ryegrass, Italian plant response rating, listed per entry.

>>> value("FC(F)c1cc(-c2c(Cl)cccc2Oc2ncc(Cl)cn2)on1 [Compound 120]")
5
>>> value("Cc1cc(-c2ccccc2Oc2ncc(Cl)cn2)no1 [Compound 60]")
0
>>> value("FC(F)(F)c1cc(-c2ccccc2Oc2ncc(Cl)cn2)ncn1 [Compound 54]")
0

Now examine the next entry.
Tell us which Ryegrass, Italian plant response rating value is on record for Cn1nnc(-c2ccccc2Oc2ncc(Br)cn2)n1 [Compound 50]
0

====

# System: johnsongrass (Sorghum halepense)
# methodSummary: Test D pre-/postemergence plant response
# Format: in vivo
# testSettings: Preemergence, 125 g ai/ha
// assign yes (1) if Plant response rating (scale 0 to 100), Johnsongrass falls strictly below 70, else no (0) (ties count as no (0))

See these solved cases before continuing.
>>> classlabel("Fc1cccc(Oc2ncc(Br)cn2)c1-c1cc(C(F)F)on1")
"no (0)"
>>> classlabel("FC(F)c1cc(-c2c(Cl)cccc2Oc2ncc(Cl)cn2)no1")
"yes (1)"
>>> classlabel("Cc1cc(-c2ccccc2Oc2ncc(Cl)cn2)no1")
"yes (1)"

Decide: Plant response rating (scale 0 to 100), Johnsongrass of "FC(F)c1cc(-c2c(Cl)cccc2Oc2ncc(Cl)cn2)on1" strictly below 70?
no (0)

====

# Tested on: velvetleaf (Abutilon theophrasti)
# methodSummary: Test D pre-/postemergence plant response
# Type: in vivo
# testSettings: Preemergence; 62 g ai/ha; scale 0 to 100 (0 no effect, 100 complete control)
Measured Plant response rating, Velvetleaf, listed per entry.
Simply state the number, no unit and no words.

Below are worked cases with known answers.
>>> value("Cc1cc(-c2ccccc2Oc2ncc(Cl)cn2)no1 [Compound 60]")
100
>>> value("FC(F)c1cc(-c2c(Cl)cccc2Oc2ncc(Cl)cn2)on1 [Compound 120]")
100

Tell us which Plant response rating, Velvetleaf value is on record for FC(F)(Cl)c1cc(-c2ccccc2Oc2ncc(Cl)cn2)no1 [Compound 143]
85

Tell us which Plant response rating, Velvetleaf value is on record for FC(F)(F)c1cc(-c2ccccc2Oc2ncc(Cl)cn2)ncn1 [Compound 54]
85

====

# System: velvetleaf (Abutilon theophrasti)
# methodSummary: Test D pre-/postemergence plant response
# Type: in vivo
# testSettings: Postemergence, 62 g ai/ha; scale 0 to 100, 0 no effect, 100 complete control
# Excerpt: […]
// assign criterion met if Plant response rating, Velvetleaf falls strictly below 60, else criterion not met (ties count as criterion not met)

>>> classlabel("FC(F)(F)c1cc(-c2c(Br)cccc2Oc2ncc(Cl)cn2)no1")
"criterion met"
>>> classlabel("FC(F)(F)c1cc(-c2ccccc2Oc2ncc(Cl)cn2)ncn1")
"criterion met"
>>> classlabel("FC(F)c1cc(-c2c(Cl)cccc2Oc2ncc(Br)cn2)on1")
"criterion not met"

Decide: Plant response rating, Velvetleaf of "Fc1cccc(Oc2ncc(Br)cn2)c1-c1cc(C(F)F)on1" strictly below 60?
criterion not met

Decide: Plant response rating, Velvetleaf of "Cc1cc(-c2ccccc2Oc2ncc(Cl)cn2)no1" strictly below 60?
criterion not met

====

# Test system: large (Lg) crabgrass (Digitaria sanguinalis)
# methodSummary: Test B pre-/postemergence plant response
# Type: in vivo
# testSettings: Preemergence, 500 g ai/ha; 0 to 100 scale where 0 is no effect and 100 is complete control
Measured Plant response rating, Crabgrass, Large, listed per entry.
Simply state the number, no unit and no words.

>>> value("Cn1nc(C(F)(F)F)cc1-c1ccccc1Oc1ncc(Br)cn1")
20
>>> value("FC(F)(F)c1ccc(-c2ccccc2Oc2ncc(Br)cn2)nc1")
100
>>> value("Clc1cnc(Oc2ccccc2-c2nccs2)nc1")
10

Tell us which Plant response rating, Crabgrass, Large value is on record for "Clc1cnc(Oc2ccccc2-c2cc(Cl)cc(Cl)c2)nc1"
10

Tell us which Plant response rating, Crabgrass, Large value is on record for "Clc1ccc(-c2c(Br)cccc2Oc2ncc(Cl)cn2)nc1"
100

Tell us which Plant response rating, Crabgrass, Large value is on record for "Clc1ccc(-c2ccc(Br)cc2Oc2ncc(Cl)cn2)nc1"
0

Tell us which Plant response rating, Crabgrass, Large value is on record for "Clc1ccc(-c2c(I)cccc2Oc2ncc(Cl)cn2)nc1"
70

Tell us which Plant response rating, Crabgrass, Large value is on record for "Cc1ccc(Oc2ncc(Cl)cn2)c(-c2cccc(OC(F)(F)F)c2)c1"
70

====

Measured pest or weed control at 16 g/ha, listed per entry.
# System: field poppy (Papaver rhoeas)
# methodSummary: Test E pre-/postemergence plant response
# Format: in vivo
# testSettings: pre-emergence, 16 g ai/ha, Preemergence, scale 0 to 100, read-out: Plant response rating, Field Poppy
Please give a number only; it is taken to be in %.

>>> value("FC(F)c1cc(-c2ccccc2Oc2ncc(Cl)cn2)on1")
100
>>> value("Fc1cccc(Oc2ncc(Cl)cn2)c1-c1cc(C(F)(F)F)on1")
80
>>> value("Fc1cccc(Oc2ncc(Cl)cn2)c1-c1cc(C(F)F)no1")
100

Now examine the next entry.
Tell us which pest or weed control at 16 g/ha value is on record for "FC(F)(F)c1cc(-c2ccccc2Oc2ncc(Cl)cn2)no1"
80
